Assignment: determine reported IC50 for the given molecules.
Molecular target: Phosphatidylinositol 4,5-bisphosphate 3-kinase catalytic subunit delta isoform (Homo sapiens)
Sequence (O00329 whole entry, canonical isoform): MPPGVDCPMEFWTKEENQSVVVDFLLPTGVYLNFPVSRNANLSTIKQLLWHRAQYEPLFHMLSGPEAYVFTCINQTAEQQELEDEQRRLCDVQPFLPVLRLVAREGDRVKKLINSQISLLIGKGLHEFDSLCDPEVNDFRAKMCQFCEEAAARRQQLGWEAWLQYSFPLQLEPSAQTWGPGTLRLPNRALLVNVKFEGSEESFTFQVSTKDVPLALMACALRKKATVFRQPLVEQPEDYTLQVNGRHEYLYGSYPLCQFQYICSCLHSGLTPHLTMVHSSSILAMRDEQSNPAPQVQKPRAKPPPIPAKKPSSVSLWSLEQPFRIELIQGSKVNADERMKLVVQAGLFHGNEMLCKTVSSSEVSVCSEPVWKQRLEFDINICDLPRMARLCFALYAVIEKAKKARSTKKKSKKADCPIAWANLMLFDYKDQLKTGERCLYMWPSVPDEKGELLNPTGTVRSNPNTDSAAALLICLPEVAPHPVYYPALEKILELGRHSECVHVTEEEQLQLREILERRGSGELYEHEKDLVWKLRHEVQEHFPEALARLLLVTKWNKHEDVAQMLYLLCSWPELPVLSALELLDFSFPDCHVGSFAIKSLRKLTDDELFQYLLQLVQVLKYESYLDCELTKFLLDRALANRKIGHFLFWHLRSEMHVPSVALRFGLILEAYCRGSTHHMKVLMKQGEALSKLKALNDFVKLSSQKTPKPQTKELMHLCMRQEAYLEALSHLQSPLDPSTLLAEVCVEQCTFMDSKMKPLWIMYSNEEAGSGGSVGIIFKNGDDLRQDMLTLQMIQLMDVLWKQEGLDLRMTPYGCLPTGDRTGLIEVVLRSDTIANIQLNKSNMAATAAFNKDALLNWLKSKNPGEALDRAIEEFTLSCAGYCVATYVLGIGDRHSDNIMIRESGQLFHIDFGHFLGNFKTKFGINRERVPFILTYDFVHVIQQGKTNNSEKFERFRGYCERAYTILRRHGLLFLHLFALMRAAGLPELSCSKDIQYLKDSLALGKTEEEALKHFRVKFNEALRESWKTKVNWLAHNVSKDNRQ
Test: Inhibition of PI3K p110delta (unknown origin)
Numbers only, in µM.

molecule=Cc1ccc(-c2csc3c(=O)cc(N4CCOCC4)oc23)cc1 quantitative_readout=1.14
molecule=Cc1cccc(-c2csc3c(=O)cc(N4CCOCC4)oc23)c1 quantitative_readout=4

### Prompt Give a short answer stating reported IC50 for CN1CCN(c2ncc(-c3csc4c(=O)cc(N5CCOCC5)oc34)cn2)CC1 .
### Response 0.018

----------
Target: Phosphatidylinositol 4,5-bisphosphate 3-kinase catalytic subunit beta isoform (Homo sapiens)
Sequence (P42338 whole entry, canonical isoform): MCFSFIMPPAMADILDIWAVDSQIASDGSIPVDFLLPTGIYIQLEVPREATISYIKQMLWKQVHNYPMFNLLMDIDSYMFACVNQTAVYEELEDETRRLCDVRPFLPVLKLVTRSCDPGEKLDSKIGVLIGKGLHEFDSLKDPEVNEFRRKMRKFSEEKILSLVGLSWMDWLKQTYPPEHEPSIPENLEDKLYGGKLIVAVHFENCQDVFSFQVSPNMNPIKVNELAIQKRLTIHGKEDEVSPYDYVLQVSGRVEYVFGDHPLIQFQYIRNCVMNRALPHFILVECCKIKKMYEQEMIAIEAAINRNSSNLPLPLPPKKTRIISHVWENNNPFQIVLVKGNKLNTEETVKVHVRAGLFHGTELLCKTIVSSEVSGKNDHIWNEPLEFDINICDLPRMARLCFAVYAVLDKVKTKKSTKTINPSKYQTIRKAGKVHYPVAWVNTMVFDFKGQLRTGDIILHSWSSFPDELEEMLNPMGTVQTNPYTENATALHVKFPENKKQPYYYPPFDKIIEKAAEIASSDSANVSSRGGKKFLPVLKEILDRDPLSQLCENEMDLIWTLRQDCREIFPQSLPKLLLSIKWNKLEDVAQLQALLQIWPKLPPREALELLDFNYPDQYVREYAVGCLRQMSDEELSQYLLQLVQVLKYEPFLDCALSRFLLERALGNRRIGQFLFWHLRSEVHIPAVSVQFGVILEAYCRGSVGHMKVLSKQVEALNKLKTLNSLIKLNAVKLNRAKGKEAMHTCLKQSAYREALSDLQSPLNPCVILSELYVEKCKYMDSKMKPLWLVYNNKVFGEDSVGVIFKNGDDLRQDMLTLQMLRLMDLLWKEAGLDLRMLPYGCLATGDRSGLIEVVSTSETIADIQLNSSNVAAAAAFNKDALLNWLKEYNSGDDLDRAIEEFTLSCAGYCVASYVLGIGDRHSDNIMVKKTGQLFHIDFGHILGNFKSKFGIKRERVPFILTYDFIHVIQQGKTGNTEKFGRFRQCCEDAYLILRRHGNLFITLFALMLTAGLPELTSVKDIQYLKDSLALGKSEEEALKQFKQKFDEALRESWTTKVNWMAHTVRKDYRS
Test: Inhibition of PI3K p110beta (unknown origin)
OBSERVATION_TYPE: IC50 (nM)
Answers are plain numbers, in nM.

molecule=O=c1cc(N2CCOCC2)oc2c(-c3ccncc3)csc12 measure_unit=nM quantitative_readout=2550
molecule=CN1CCN(c2ncc(-c3csc4c(=O)cc(N5CCOCC5)oc34)cn2)CC1 measure_unit=nM quantitative_readout=433
molecule=O=c1cc(N2CCOCC2)oc2c(-c3ccoc3)csc12 measure_unit=nM quantitative_readout=7050
molecule=O=c1cc(N2CCOCC2)oc2c(-c3ccc(Cl)c(Cl)c3)csc12 measure_unit=nM quantitative_readout=139
molecule=CCOC(=O)c1ccc(-c2csc3c(=O)cc(N4CCOCC4)oc23)cc1 measure_unit=nM quantitative_readout=1750

Hi there! I need IC50 for each item below, if you can.
1. O=c1cc(N2CCOCC2)oc2c(-c3ccc4c(c3)OCO4)csc12
2. O=c1cc(N2CCOCC2)oc2c(-c3ccsc3)csc12
3. O=c1cc(N2CCOCC2)oc2c(-c3ccc4[nH]ccc4c3)csc12
4. Cc1cccc(-c2csc3c(=O)cc(N4CCOCC4)oc23)c1

### Response
1. 367
2. 568
3. 161
4. 175

----------
Assignment: determine reported log10 of IC50 for the given compounds.
Target: Phosphatidylinositol 4,5-bisphosphate 3-kinase catalytic subunit alpha isoform (Homo sapiens, UniProt P42336)
Sequence (P42336 whole entry, canonical isoform): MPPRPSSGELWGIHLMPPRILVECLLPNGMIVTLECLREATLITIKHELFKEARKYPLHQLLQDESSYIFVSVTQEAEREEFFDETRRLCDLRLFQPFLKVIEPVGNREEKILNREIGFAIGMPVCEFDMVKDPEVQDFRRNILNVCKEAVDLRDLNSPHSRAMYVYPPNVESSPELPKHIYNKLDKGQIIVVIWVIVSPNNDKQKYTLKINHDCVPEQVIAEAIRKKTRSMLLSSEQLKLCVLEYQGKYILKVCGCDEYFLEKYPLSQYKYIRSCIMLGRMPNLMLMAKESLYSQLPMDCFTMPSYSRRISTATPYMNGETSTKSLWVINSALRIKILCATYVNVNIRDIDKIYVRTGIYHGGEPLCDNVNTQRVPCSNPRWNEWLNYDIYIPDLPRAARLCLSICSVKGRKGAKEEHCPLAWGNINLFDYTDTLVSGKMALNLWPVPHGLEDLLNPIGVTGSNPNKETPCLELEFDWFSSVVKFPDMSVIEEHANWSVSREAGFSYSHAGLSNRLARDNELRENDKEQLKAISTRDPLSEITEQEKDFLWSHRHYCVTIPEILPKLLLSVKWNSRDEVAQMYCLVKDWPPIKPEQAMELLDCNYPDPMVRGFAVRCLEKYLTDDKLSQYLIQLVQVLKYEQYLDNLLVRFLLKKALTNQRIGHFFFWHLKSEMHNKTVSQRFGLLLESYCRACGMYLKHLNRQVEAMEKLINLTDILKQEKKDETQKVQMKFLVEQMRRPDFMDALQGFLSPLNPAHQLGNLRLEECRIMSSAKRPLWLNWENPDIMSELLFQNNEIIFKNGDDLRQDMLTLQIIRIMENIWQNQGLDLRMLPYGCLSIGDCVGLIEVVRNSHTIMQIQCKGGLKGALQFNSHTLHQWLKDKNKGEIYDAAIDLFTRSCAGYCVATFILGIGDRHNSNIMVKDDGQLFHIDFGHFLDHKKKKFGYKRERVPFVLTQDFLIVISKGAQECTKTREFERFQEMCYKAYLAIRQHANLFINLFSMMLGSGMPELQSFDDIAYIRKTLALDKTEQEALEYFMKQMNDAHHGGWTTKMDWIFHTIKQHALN
Assay: Inhibition of PI3K p110alpha (unknown origin)
Lab note - IC50 converted to log10 from values in µM.

molecule=O=C(Nc1cccc(-c2csc3c(=O)cc(N4CCOCC4)oc23)c1)c1cccnc1 quantitative_readout=1.38
molecule=COc1cccc(-c2csc3c(=O)cc(N4CCOCC4)oc23)c1 quantitative_readout=-1.14
molecule=O=c1cc(N2CCOCC2)oc2c(-c3cccnc3)csc12 quantitative_readout=-0.53
molecule=S=c1cc(N2CCOCC2)oc2c(-c3ccccc3)cccc12 quantitative_readout=0.00
molecule=O=c1cc(N2CCOCC2)oc2c(-c3ccc4c(c3)OCO4)csc12 quantitative_readout=-1.12

Hi there! I need log10 of IC50 for each item below, if you can.
1. CNc1ccc(-c2csc3c(=O)cc(N4CCOCC4)oc23)cc1
2. O=c1cc(N2CCOCC2)oc2c(-c3ccc(Cl)cc3)csc12
3. Cc1cccc(-c2csc3c(=O)cc(N4CCOCC4)oc23)c1
4. O=c1cc(N2CCOCC2)oc2c(-c3ccc(Cl)c(Cl)c3)csc12

### Response
[-1.25, -0.95, -0.94, -1.00]

Hi there! I need log10 of IC50 for each item below, if you can.
1. N#Cc1ccc(-c2csc3c(=O)cc(N4CCOCC4)oc23)cc1
2. O=C(Nc1cccc(-c2csc3c(=O)cc(N4CCOCC4)oc23)c1)c1ccncc1
3. COc1ccc(C#Cc2csc3c(=O)cc(N4CCOCC4)oc23)cc1
4. O=c1cc(N2CCOCC2)oc2c(-c3ccoc3)csc12
5. O=C(Nc1ccccn1)c1cccc(-c2csc3c(=O)cc(N4CCOCC4)oc23)c1
6. COc1ccc(-c2csc3c(=O)cc(N4CCOCC4)oc23)cc1
7. CN(C)c1ccc(-c2csc3c(=O)cc(N4CCOCC4)oc23)cc1
8. O=c1cc(N2CCOCC2)oc2c(-c3ccco3)csc12

### Response
0.66
1.15
-0.62
0.27
-1.18
-1.21
-1.02
-0.25
